System: PIP5K2B
CONDITION_DETAILS: concentration: 1 μM, replicates: in singlicate; n = 1;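 also: KINOMEscan kinase panel screen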
Listing of recorded %Inh by entry.
MEASURED_ATTRIBUTE: %Inh

Cc1cnc(N)c(/C=C/c2cncc(C(=O)NCCc3ccc(Cl)cc3Cl)c2)c1.Cl: 21%
CNc1nc(-c2ccc3c(N)n[nH]c3c2)cc(N2C[C@@H](C(=O)NC3CCCCC3)OC[C@H]2C)n1: 21%
Cc1nccc(-c2c(-c3ccc(F)cc3)ncn2CCCN2CCOCC2)n1.Cl: 0%
O=C(Nc1n[nH]c2nc(-c3cccs3)c(Br)cc12)C1CC1: 0%
COC(=O)c1cccc(NC(=O)NC2CCN(c3ccnc(Nc4ccc(OC)cc4)n3)C2)c1 (centres unmarked): 19%

* * *

Test system: MYLK
CONDITION_DETAILS: concentration: 1 μM, replicates: in singlicate; n = 1
MEASURED_ATTRIBUTE: %Inh (%)

O=C(Nc1n[nH]c2nc(-c3cccs3)c(Br)cc12)C1CC1 [SB-735297]: 29
Cn1cncc1-c1cc2c(Nc3ccc(OCc4ccccc4)cc3)ncnc2cn1 [GW281179]: 9
O=C(Nc1n[nH]c2cc(-c3ccsc3)ccc12)C1CC1 [SB-732932]: 24
COC(=O)C(Cc1ccccc1)NC(=O)NC1CCN(c2ccnc(Nc3ccc(F)cc3)n2)C1 (centres unmarked) [GSK1379714]: 11
Nc1ncnc2occ(-c3ccc4c(c3)CCN4C(=O)Cc3cc(F)ccc3F)c12 [GSK2645446]: 9

* * *

Listing of recorded %Inh by entry.
Tested on: YANK3
Construct: gene STK32C
CONDITION_DETAILS: concentration: 1 μM, replicates: in singlicate; n = 1
MEASURED_ATTRIBUTE: %Inh

O=C(Nc1n[nH]c2nc(-c3ccco3)c(Br)cc12)C1CCN(Cc2ccccc2)C1.O=C(O)[C@H](O)[C@@H](O)C(=O)O (stereo not drawn): 0%
Fc1ccc(-c2nc3n(c2-c2ccncc2)CCS3)cc1: 21%
CCn1c(-c2ccccc2)nc2cnccc21: 32%
COc1ccc(Nc2nccc(N3CCC(NC(=O)c4cc5ccccc5s4)C3)n2)cc1 (stereo not drawn): 0%
Cc1ccc(NC(=O)Nc2ccc(Cl)c(C(F)(F)F)c2)cc1-c1ccc(C(=O)Nc2ccncc2)cc1: 10%
c1ccc(-c2ccnc3[nH]ccc23)cc1: 8%
Cn1cncc1C(=O)NC1CCN(c2ccnc(Nc3ccc(F)cc3)n2)C1 (stereo not drawn): 0%
CS(=O)(=O)Cc1ccc(Nc2nccc(-c3c(-c4cccc(NC(=O)C5CCCCC5)c4)nn4ncccc34)n2)cc1: 3%
COC(=O)C(NC(=O)NC1CCN(c2ccnc(Nc3ccc(F)cc3)n2)C1)c1ccccc1 (stereo not drawn): 0%
Fc1ccc(-c2nn3cccc(F)c3c2-c2ccncc2)cc1: 12%
Nc1cccc(-c2ccc3c(N)n[nH]c3c2)n1: 0%
CN1c2ccc(-c3ccc(C(N)=O)cc3)cc2-c2[nH]ncc2S1(=O)=O: 0%
O=C(Nc1n[nH]c2nc(-c3cccs3)c(Br)cc12)C1CCCC1: 65%
Cc1ccc(NC(=O)Nc2ccccc2)cc1-c1ccc(C(=O)Nc2ccncc2)cc1: 0%
Cc1ccc(NC(=O)Nc2ccccc2F)cc1-c1ccc(C(=O)Nc2ccncc2)cc1: 16%
O=C(Nc1n[nH]c2nc(-c3cccs3)c(Br)cc12)C1CC1: 0%
COc1cc2ncnc(Nc3cccc(Br)c3)c2cc1OC.Cl: 13%
Cc1nccc(-c2c(-c3ccc(F)cc3)ncn2CCCN2CCOCC2)n1.Cl: 5%
CCCCc1nn2ncccc2c1-c1ccnc(NC2CC2)n1: 0%
COc1ccc(Nc2nccc(NCCNC(=O)Nc3cc(C)ccc3C)n2)cc1: 0%
CNc1cc(-c2ccc3c(N)n[nH]c3c2)nc(N)n1: 0%
Cn1cnc2c(N)ncnc21: 0%
CNCc1ccc2nc(NC(=O)c3ccc(C(C)(C)C)cc3)cn2c1: 3%
COc1ccc(CSc2nnc(-c3ccc4nccn4c3)o2)cc1C(F)(F)F: 0%
Nc1ncnc2occ(-c3ccc4c(c3)CCN4C(=O)Cc3cc(F)ccc3F)c12: 0%
COC(=O)C(Cc1ccccc1)NC(=O)NC1CCN(c2ccnc(Nc3ccc(F)cc3)n2)C1 (stereo not drawn): 7%
COc1ccc(-c2coc3ccc(-c4nnc(C)o4)cc23)cc1: 9%
CC[C@@H]1CO[C@H](C(=O)Nc2ccccc2)CN1c1cc(-c2ccc3c(N)n[nH]c3c2)nc(NC)n1: 0%
COc1cccc(C2=C(Nc3cc(Cl)c(O)c(Cl)c3)C(=O)NC2=O)c1: 4%
Cc1cccc2c(-c3ccncn3)c(-c3ccc(F)cc3)nn12: 18%
CC(=O)c1cccc(NC(=O)NC2CCN(c3ccnc(Nc4ccc(F)cc4)n3)C2)c1 (stereo not drawn): 6%
CSc1ccc(-c2nc3n(c2-c2ccncc2)CCC3)cc1: 0%
CC(=O)c1c(C)c2cnc(Nc3ccn(C)n3)nc2n(C2CCCC2)c1=O: 2%
O=c1cc(N2CCOCC2)nc2n(Cc3cccc(Cl)c3Cl)c3ccccc3n12: 29%
COc1ccc(Nc2nccc(N3CCC(NC(=O)C(C)c4ccc(Cl)cc4)C3)n2)cc1 (stereo not drawn): 15%
CC(C)c1cc(-c2ccc3c(N)n[nH]c3c2)nc(N)n1: 19%
Cl.Cl.Cl.N#Cc1ccc(CCNc2nccc(-c3cccc(CN4CCNCC4)c3)n2)cc1: 3%
Cc1cnc(N)c(/C=C/c2cncc(C(=O)NCCc3ccc(Cl)cc3Cl)c2)c1.Cl: 26%
O=C1NC(=O)C(c2ccc(Cl)cc2)=C1Nc1cccc(Cl)c1: 0%
